Each item that follows carries a reported Ki.
Target: Human Norepinephrine Transporter (NET) (Homo sapiens)
Sequence (P23975 whole entry): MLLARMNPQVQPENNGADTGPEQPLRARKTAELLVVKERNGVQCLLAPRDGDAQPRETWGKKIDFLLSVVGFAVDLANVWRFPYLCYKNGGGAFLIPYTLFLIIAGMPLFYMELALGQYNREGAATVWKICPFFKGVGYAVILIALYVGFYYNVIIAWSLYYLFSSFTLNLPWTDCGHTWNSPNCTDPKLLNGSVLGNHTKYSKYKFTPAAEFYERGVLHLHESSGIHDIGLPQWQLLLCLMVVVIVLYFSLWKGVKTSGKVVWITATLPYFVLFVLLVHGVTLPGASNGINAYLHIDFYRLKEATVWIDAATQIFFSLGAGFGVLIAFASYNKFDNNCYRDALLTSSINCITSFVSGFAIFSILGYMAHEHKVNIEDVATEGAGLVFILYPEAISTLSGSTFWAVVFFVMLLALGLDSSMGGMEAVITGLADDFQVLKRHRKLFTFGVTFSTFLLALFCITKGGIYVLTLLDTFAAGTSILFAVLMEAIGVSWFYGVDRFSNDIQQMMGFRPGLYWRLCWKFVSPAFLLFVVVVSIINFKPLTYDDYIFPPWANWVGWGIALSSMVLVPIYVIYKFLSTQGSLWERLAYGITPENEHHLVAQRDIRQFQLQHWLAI
Assay: Binding assay to human norepinephrine transporter (NET) ([3H]-Nisoxetin)
Settings: Table 2 (dual compounds); human NET enriched membranes, 5 nM [3H]-Nisoxetin; read-out: Ki(nM) NET Hum

- compound: "CNCCC(Oc1ccc(CN(C)Cc2ccccc2)c(F)c1)c1cccs1 (stereo not drawn)"
  Ki: "100 to 500 nM"
- compound: "CCNc1ncc(C(=O)N(C)c2cccc(COC(CCNC)c3cccs3)c2)c(N2CCCC2)n1 (stereo not drawn)"
  Ki: "500 to 1000 nM"
- compound: "CNCCC(Oc1cccc(CNCc2ccccc2)c1)c1cccs1 (stereo not drawn)"
  Ki: "100 to 500 nM"
- compound: "CNCCC(OCc1cccc(NC(=O)c2ccccc2)c1)c1ccccc1 (stereo not drawn)"
  Ki: "500 to 1000 nM"
- compound: "CNCCC(Oc1cccc(C(=O)NCc2ccccc2)c1)c1ccccc1 (stereo not drawn)"
  Ki: "500 to 1000 nM"
- compound: "CNCCC(Oc1cccc(N(C)C(=O)c2cccc(CN)c2)c1)c1ccccc1 (stereo not drawn)"
  Ki: "500 to 1000 nM"
- compound: "CNCCC(OCc1cccc(NC(=O)c2ccccc2)c1)c1cccs1 (stereo not drawn)"
  Ki: "500 to 1000 nM"
- compound: "CNCCC(Oc1cccc(C(=O)Nc2ccccc2)c1)c1ccccc1 (stereo not drawn)"
  Ki: "500 to 1000 nM"
- compound: "CNCCC(Oc1ccc(CNCc2ccccc2)c(F)c1)c1cccs1 (stereo not drawn)"
  Ki: "< 100 nM"
- compound: "CNCCC(Oc1cccc(C(=O)Nc2cccnc2)c1)c1ccccc1 (stereo not drawn)"
  Ki: "100 to 500 nM"
- compound: "CNCCC(OCc1cccc(NC(=O)c2ccccc2F)c1)c1cccs1 (stereo not drawn)"
  Ki: "500 to 1000 nM"
- compound: "CNCCC(Oc1cccc(CN(C)Cc2ccccc2)c1)c1cccs1 (stereo not drawn)"
  Ki: "500 to 1000 nM"
- compound: "CNCCNC(=O)c1cccc(OC(CCNC)c2ccccc2)c1 (stereo not drawn)"
  Ki: "500 to 1000 nM"
- compound: "CNCCC(Oc1cccc(C(=O)NC2CCN(C)CC2)c1)c1ccccc1 (stereo not drawn)"
  Ki: "≥ 1000 nM"
- compound: "CNCCC(Oc1cccc(N(C)C(=O)CCCN)c1)c1ccccc1 (stereo not drawn)"
  Ki: "500 to 1000 nM"
- compound: "CCNc1ncc(C(=O)Nc2cccc(OC(CCNC)c3ccccc3)c2)c(N2CCCC2)n1 (stereo not drawn)"
  Ki: "500 to 1000 nM"
- compound: "CNCCC(OCc1cccc(NC(=O)c2cnc(OC)nc2)c1)c1ccccc1 (stereo not drawn)"
  Ki: "500 to 1000 nM"
- compound: "CNCCC(OCc1cccc(Nc2ccccc2)c1)c1ccccc1 (stereo not drawn)"
  Ki: "100 to 500 nM"
- compound: "CNCCC(OCc1cccc(NC(=O)c2ccccn2)c1)c1ccccc1 (stereo not drawn)"
  Ki: "500 to 1000 nM"
- compound: "CNCCC(Oc1cccc(C(=O)NCc2ccccn2)c1)c1ccccc1 (stereo not drawn)"
  Ki: "500 to 1000 nM"
- compound: "CNCCC(Oc1cccc(C(=O)Nc2cccc(-c3nnc(C)o3)c2)c1)c1ccccc1 (stereo not drawn)"
  Ki: "100 to 500 nM"

* * *

Target: Human α2δ-1 Subunit of Cav2.2 Calcium Channel (Homo sapiens, UniProt P54289)
Sequence (P54289 25-1103): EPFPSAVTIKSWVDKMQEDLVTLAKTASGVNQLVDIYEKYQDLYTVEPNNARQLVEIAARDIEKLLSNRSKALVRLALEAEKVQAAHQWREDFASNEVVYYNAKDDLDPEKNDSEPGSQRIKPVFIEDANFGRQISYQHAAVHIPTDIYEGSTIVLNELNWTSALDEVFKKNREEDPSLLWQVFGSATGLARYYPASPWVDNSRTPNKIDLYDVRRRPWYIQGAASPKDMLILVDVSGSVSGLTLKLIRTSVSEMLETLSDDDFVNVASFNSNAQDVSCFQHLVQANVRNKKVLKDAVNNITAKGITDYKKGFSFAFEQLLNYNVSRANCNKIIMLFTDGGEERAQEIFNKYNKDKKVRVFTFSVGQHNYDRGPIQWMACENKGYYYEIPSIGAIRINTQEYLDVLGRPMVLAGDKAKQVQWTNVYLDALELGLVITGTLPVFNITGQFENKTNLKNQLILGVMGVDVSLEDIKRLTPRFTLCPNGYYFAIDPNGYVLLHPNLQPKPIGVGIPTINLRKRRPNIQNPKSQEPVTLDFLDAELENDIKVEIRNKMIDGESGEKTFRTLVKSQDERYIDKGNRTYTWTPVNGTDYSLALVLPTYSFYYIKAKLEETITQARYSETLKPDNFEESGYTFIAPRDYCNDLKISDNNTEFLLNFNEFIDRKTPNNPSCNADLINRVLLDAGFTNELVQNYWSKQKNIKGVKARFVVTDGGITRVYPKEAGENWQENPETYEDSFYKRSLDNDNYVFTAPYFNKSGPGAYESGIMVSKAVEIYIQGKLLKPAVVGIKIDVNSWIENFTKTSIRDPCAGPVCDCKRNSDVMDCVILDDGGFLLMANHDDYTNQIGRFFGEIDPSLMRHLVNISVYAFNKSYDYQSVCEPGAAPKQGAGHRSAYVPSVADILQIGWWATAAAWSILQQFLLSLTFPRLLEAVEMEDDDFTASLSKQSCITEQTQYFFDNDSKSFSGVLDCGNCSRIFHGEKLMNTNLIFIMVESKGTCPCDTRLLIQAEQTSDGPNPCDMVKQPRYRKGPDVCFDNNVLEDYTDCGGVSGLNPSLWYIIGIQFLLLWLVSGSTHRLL
Experiment: Binding assay to human α2δ-1 subunit of Cav2.2 calcium channel ([3H]-Gabapentin)
Conditions: Table 1; human α2δ-1 enriched membranes, 15 nM [3H]-Gabapentin; read-out: Ki(nM) alpha2delta Hum
Method: Binding Assay to Human α2δ-1 Subunit of Cav2.2 Calcium Channel. Human α2δ-1 enriched membranes (2.5 μg) were incubated with 15 nM of radiolabeled [3H]-Gabapentin in assay buffer containing Hepes-KOH 10 mM, pH 7.4. NSB (non specific binding) was measured by adding 10 μM pregabalin. The binding of the test compound was measured in five different concentrations. […] Filter plates were dried at 60° C. for 1 hour and 30 μl of scintillation cocktail were added to each well before radioactivity reading. […]

- compound: "CNCCC(Oc1cccc(C(=O)Nc2ccccc2)c1)c1ccccc1 (stereo not shown) [Example 13]"
  Ki: "≥ 3000 nM"
- compound: "CNCCC(Oc1cccc(C(=O)NCc2ccccn2)c1)c1cccs1 (stereo not shown) [Example 7]"
  Ki: "≥ 3000 nM"
- compound: "CN(C)CCC(OCc1cccc(NC(=O)c2ccccc2N(C)C)c1)c1cccs1 (stereo not shown) [Example 55]"
  Ki: "≥ 3000 nM"
- compound: "CNCCC(Oc1cccc(C(=O)NCc2ccccc2)c1)c1cccs1 (stereo not shown) [Example 10]"
  Ki: "500 to 3000 nM"
- compound: "CNCCC(Oc1ccc(CNCc2ccccc2)c(F)c1)c1cccs1 (stereo not shown) [Example 71]"
  Ki: "≥ 3000 nM"
- compound: "CNCCC(OCc1cccc(NC(=O)c2cnc(OC)nc2)c1)c1ccccc1 (stereo not shown) [Example 41]"
  Ki: "≥ 3000 nM"
- compound: "CCNc1ncc(C(=O)N(C)c2cccc(OC(CCNC)c3ccccc3)c2)c(N2CCCC2)n1 (stereo not shown) [Example 29]"
  Ki: "≥ 3000 nM"
- compound: "CCN(Cc1ccccc1)Cc1cccc(OC(CCNC)c2cccs2)c1 (stereo not shown) [Example 1]"
  Ki: "100 to 500 nM"
- compound: "CNCCC(OCc1cccc(N(C)C(=O)c2ccccc2)c1)c1ccccc1 (stereo not shown) [Example 31]"
  Ki: "≥ 3000 nM"
- compound: "CNCCC(Oc1cccc(C(=O)NCc2ccccn2)c1)c1ccccc1 (stereo not shown) [Example 18]"
  Ki: "≥ 3000 nM"
- compound: "CCNCc1cccc(OC(CCNC)c2cccs2)c1 (stereo not shown) [Example 5]"
  Ki: "100 to 500 nM"
- compound: "CNCCC(OCc1cccc(N(Cc2ccccc2)C(C)=O)c1)c1ccccc1 (stereo not shown) [Example 57]"
  Ki: "≥ 3000 nM"
- compound: "CNCCC(Oc1cccc(C(=O)N(C)c2ccccc2)c1)c1cccs1 (stereo not shown) [Example 67]"
  Ki: "≥ 3000 nM"
- compound: "CNCCC(Oc1cccc(N(C)C(=O)c2cccnc2)c1)c1ccccc1 (stereo not shown) [Example 26]"
  Ki: "≥ 3000 nM"
- compound: "CNCCC(OCc1cccc(NC(=O)c2cccnc2)c1)c1ccccc1 (stereo not shown) [Example 40]"
  Ki: "≥ 3000 nM"
- compound: "CNCCC(Oc1cccc(N(C)C(=O)CCCN)c1)c1ccccc1 (stereo not shown) [Example 28]"
  Ki: "≥ 3000 nM"
- compound: "CCCC(=O)N(C)c1cccc(OC(CCNC)c2cccs2)c1 (stereo not shown) [Example 64]"
  Ki: "≥ 3000 nM"
- compound: "CNCCC(Oc1cccc(CNCc2ccccc2)c1)c1cccs1 (stereo not shown) [Example 2]"
  Ki: "500 to 3000 nM"
- compound: "CNCCC(Oc1cccc(C(=O)Nc2cccnc2)c1)c1ccccc1 (stereo not shown) [Example 15]"
  Ki: "≥ 3000 nM"

* * *

As shown below, each of these molecules has a reported Ki value.
Biological target: Human α2δ-1 Subunit of Cav2.2 Calcium Channel (Homo sapiens)
Assay: Binding assay to human α2δ-1 subunit of Cav2.2 calcium channel ([3H]-Gabapentin)
Conditions: Table 1; human α2δ-1 enriched membranes, 15 nM [3H]-Gabapentin; read-out: Ki(nM) alpha2delta Hum

- molecule: "CNCCC(Oc1cccc(C(=O)NC)c1)c1ccccc1 (stereo not shown)"
  targetSystem: "Human α2δ-1 Subunit of Cav2.2 Calcium Channel (Homo sapiens)"
  Ki: "≥ 3000 nM"
- molecule: "CCNc1ncc(C(=O)Nc2cccc(COC(CCNC)c3ccccc3)c2)c(N2CCCC2)n1 (stereo not shown)"
  targetSystem: "Human α2δ-1 Subunit of Cav2.2 Calcium Channel (Homo sapiens)"
  Ki: "500 to 3000 nM"
- molecule: "CCNc1ccc(NC(=O)c2cccc(OC(CCNC)c3ccccc3)c2)cn1 (stereo not shown)"
  targetSystem: "Human α2δ-1 Subunit of Cav2.2 Calcium Channel (Homo sapiens)"
  Ki: "≥ 3000 nM"
- molecule: "CNCCC(OCc1cccc(NCc2cncnc2)c1)c1ccccc1 (stereo not shown)"
  targetSystem: "Human α2δ-1 Subunit of Cav2.2 Calcium Channel (Homo sapiens)"
  Ki: "≥ 3000 nM"
- molecule: "CCNc1ncc(C(=O)N(C)c2cccc(COC(CCNC)c3cccs3)c2)c(N2CCCC2)n1 (stereo not shown)"
  targetSystem: "Human α2δ-1 Subunit of Cav2.2 Calcium Channel (Homo sapiens)"
  Ki: "500 to 3000 nM"
- molecule: "CNCCC(OCc1cccc(Nc2ccccc2)c1)c1ccccc1 (stereo not shown)"
  targetSystem: "Human α2δ-1 Subunit of Cav2.2 Calcium Channel (Homo sapiens)"
  Ki: "≥ 3000 nM"
- molecule: "CCCC(=O)N(C)c1cccc(OC(CCNC)c2ccccc2)c1 (stereo not shown)"
  targetSystem: "Human α2δ-1 Subunit of Cav2.2 Calcium Channel (Homo sapiens)"
  Ki: "≥ 3000 nM"
- molecule: "CNCCC(Oc1cccc(C(=O)NCc2ccccc2)c1)c1ccccc1 (stereo not shown)"
  targetSystem: "Human α2δ-1 Subunit of Cav2.2 Calcium Channel (Homo sapiens)"
  Ki: "≥ 3000 nM"
- molecule: "CNCCC(Oc1cccc(N(C)C(=O)c2ccccc2)c1)c1cccs1 (stereo not shown)"
  targetSystem: "Human α2δ-1 Subunit of Cav2.2 Calcium Channel (Homo sapiens)"
  Ki: "≥ 3000 nM"
- molecule: "CNCCC(Oc1cccc(C(=O)Nc2cccnc2)c1)c1cccs1 (stereo not shown)"
  targetSystem: "Human α2δ-1 Subunit of Cav2.2 Calcium Channel (Homo sapiens)"
  Ki: "500 to 3000 nM"
